Hello, the source for this data is ChEMBL document CHEMBL4819019, in case you need it.

Each item that follows carries a reported MIC.
tested on: Staphylococcus intermedius; test: Antibacterial activity against clinical isolate methicillin-resistant Staphylococcus intermedius 1143 measured after 24 hrs by broth microdilution method; format: functional
Supply the numeric figure in µg/mL, leaving out any unit text.

In the examples that follow, each entry is paired with its recorded MIC.
compound | test system | scale unit | MIC
CCCCCCCCCCCCCCCCCC(=O)NCCC[N+](C)(C)Cc1cnc(C)c2c1COC(C)(C)O2.[Cl-] | Staphylococcus intermedius | µg/mL | 16
CCCCCCCCCCCCCC(=O)OCC[N+](C)(C)Cc1nc(C)c2c(c1CO)COC(C)(C)O2.[Cl-] | Staphylococcus intermedius | µg/mL | 4
CCCCCCCCCCCCCC(=O)NCC[N+](C)(C)Cc1cnc(C)c2c1COC(C)(C)O2.[Cl-] | Staphylococcus intermedius | µg/mL | 4
CCCCCCCCCCCCCC(=O)NCCC[N+](C)(C)Cc1ccccc1.[Cl-] | Staphylococcus intermedius | µg/mL | 64
CCCCCCCCCCCCCC(=O)OCC[N+](C)(C)Cc1cnc(C)c2c1COC(CCC)O2.[Cl-] (stereo not given) | Staphylococcus intermedius | µg/mL | 4

QUERY: Request body: readout MIC, system Staphylococcus intermedius, query CCCCCCCCCCCCCC(=O)NCC[N+](C)(C)Cc1cnc(C)c2c1COC(C)(CCC)O2.[Cl-] (stereo not given) . Return the value.
RESULT: 2

QUERY: Request body: readout MIC, system Staphylococcus intermedius, query `CCCCCCCCCCCCCC(=O)OCC[N+](C)(C)Cc1cnc(C)c2c1COC(C)(C)O2.[Cl-]` . Return the value.
RESULT: 8

QUERY: Request body: readout MIC, system Staphylococcus intermedius, query CCCCCCCCCCCC(=O)OCCC[N+](C)(C)Cc1cnc(C)c2c1COC(CCC)O2.[Cl-] (stereo not given) . Return the value.
RESULT: 16

QUERY: Request body: readout MIC, system Staphylococcus intermedius, query `CCCCCCCCCCCCCC(=O)NCC[N+](C)(C)Cc1nc(C)c2c(c1CO)COC(C)(C)O2.[Cl-]` . Return the value.
RESULT: 4

QUERY: Request body: readout MIC, system Staphylococcus intermedius, query CCCCCCCCCCCC(=O)NCC[N+](C)(C)Cc1cnc(C)c2c1COC(C)(CCC)O2.[Cl-] (stereo not given) . Return the value.
RESULT: 4
